Item-by-item account of IC50
Target: Disintegrin and metalloproteinase domain-containing protein 17 (Homo sapiens, UniProt P78536)
Sequence (P78536 whole entry, the tested form may be a part): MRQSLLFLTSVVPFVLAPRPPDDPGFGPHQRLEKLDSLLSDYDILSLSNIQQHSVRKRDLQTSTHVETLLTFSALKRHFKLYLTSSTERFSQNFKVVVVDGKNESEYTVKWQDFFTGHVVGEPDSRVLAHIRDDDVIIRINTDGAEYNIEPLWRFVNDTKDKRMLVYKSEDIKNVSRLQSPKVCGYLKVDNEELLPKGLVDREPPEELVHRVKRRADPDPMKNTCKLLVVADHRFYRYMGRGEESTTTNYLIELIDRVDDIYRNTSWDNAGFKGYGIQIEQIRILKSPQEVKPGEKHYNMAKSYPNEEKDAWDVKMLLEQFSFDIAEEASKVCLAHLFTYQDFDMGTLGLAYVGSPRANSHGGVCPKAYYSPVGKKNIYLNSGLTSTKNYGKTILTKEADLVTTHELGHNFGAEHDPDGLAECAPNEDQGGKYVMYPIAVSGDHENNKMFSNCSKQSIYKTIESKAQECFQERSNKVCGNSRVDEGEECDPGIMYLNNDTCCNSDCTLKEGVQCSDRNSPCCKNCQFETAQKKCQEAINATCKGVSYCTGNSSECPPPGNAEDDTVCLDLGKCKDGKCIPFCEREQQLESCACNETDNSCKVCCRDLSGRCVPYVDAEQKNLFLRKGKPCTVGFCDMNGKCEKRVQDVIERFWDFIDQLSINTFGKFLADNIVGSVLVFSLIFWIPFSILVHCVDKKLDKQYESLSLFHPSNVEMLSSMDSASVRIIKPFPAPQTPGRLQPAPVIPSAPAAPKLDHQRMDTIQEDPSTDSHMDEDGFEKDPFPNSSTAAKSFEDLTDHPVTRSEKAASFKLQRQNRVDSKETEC
Experiment: exosite inhibitors of ADAM17, dose response, biochemical (AID 743260)
Dear colleague, please return just the value in µM, with no unit written.

O=C(Cc1sc(=O)n(-c2ccccc2)c1O)Nc1ccccc1	46.7

Reported IC50 for O=C1OCCN1C(=O)C1=[N+](c2ccc(Br)cc2)N[C-](c2ccccc2)[C@H]1c1ccc([N+](=O)[O-])cc1 [SMR000327268] : what is it?
69.5

Reported IC50 for COC(=O)c1cccc(Cn2c(Cl)c(CN=Nc3ccccc3C)sc2=O)c1 : what is it?
69.5

Reported IC50 for CC(=NNC(=N)Sc1cc(O)n(-c2ccc(Br)cc2)c1O)c1cccs1 : what is it?
69.5
